All values here come from paper PMC3133487.

testedOn: M. tuberculosis MurE (Mycobacterium tuberculosis)
Sequence (P9WJL3 1-535): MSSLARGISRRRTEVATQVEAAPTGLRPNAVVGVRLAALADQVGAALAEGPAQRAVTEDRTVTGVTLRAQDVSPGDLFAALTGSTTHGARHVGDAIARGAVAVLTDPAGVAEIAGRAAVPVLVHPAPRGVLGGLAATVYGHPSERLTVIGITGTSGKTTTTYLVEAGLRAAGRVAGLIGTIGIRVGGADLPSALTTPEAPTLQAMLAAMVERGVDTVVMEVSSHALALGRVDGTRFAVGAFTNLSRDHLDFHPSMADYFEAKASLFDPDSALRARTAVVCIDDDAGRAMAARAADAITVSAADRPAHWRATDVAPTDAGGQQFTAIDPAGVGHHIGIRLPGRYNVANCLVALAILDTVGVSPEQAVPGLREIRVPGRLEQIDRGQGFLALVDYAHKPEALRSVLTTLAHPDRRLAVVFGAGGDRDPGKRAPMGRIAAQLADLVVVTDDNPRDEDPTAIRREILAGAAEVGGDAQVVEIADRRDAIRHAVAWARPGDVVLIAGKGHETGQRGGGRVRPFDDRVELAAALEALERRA
assaySummary: MurE ligase inhibition, HPLC quantification of UDP-MurNAc-tripeptide
Assay type: biochemical
assayMetric: IC50

Missing value: IC50, M. tuberculosis MurE (Mycobacterium tuberculosis), entry `NNC(=O)c1ccncc1` . Fill in?
> 1000 µM
